# TARGET_OF_ASSAY: recombinant Sirt2 (Homo sapiens)
# Sequence (Q8IXJ6 whole entry): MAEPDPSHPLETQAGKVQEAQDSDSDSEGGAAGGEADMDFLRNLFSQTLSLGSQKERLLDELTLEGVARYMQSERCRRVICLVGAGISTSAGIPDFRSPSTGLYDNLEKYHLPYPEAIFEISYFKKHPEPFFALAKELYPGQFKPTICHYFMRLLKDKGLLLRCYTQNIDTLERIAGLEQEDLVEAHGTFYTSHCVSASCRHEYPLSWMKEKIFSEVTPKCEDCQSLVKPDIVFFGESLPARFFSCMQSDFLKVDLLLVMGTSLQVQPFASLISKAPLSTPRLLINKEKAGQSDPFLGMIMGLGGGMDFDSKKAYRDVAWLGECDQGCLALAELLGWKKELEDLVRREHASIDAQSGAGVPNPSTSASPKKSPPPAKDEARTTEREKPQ
# ASSAY_COMMENT: recombinant Sirt2 enzyme assay in vitro (Fluor-de-Lys-SirT2 substrate)
# CONDITION_SET: substrate FldSirt2; activation; read-out: EC50 to activate recombinant Sirt2 in vitro
QUANTITY_NAME: pEC50
Just so you know, pEC50 here is -log10 of the concentration in molar units; reply with that number alone.

Query: pEC50; subject: Oc1ccc(C=Cc2cc(O)cc(O)c2)cc1 3.04

Values compiled from patent US20060063210A1.
